Sourced from patent US7943653B2

# target.entity: human CB1 receptor (Homo sapiens, UniProt P21554)
# Construct: expressed in transfected cells; host or cells: SK-N-MC cells, stably transfected with pcDNA3 CB-1 (human); semi-purified membrane pellet
# Sequence (P21554 whole entry): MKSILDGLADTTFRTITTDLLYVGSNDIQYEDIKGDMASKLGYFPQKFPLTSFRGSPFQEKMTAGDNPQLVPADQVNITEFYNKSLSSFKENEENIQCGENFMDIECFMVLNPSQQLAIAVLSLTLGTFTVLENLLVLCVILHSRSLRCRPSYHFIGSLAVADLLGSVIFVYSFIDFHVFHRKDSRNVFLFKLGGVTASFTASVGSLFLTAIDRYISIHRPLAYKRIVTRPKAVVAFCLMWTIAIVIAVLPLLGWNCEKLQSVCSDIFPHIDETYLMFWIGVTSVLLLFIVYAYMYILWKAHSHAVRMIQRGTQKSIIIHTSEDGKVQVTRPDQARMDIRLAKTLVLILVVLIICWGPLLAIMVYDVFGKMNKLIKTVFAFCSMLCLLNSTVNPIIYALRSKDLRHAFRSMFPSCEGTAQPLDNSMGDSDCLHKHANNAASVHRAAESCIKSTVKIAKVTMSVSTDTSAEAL
# test.summary: Binding assay, cannabinoid CB1 receptor, [3H]-CP-55,940 displacement
pIC50: −log10 of the molar value.
Quick rule for you: pIC50 at 7 or higher means criterion met, lower means criterion not met.

Req: // inclusive: pIC50 at least 7? input: `CC(=Cc1ccc(Cl)cc1)c1c(C)c(C(=O)N[C@@H](C)C2CCCCC2)nn1-c1ccc(Cl)cc1Cl`
Resp: criterion met

Req: // inclusive: pIC50 at least 7? input: `CC(=Cc1ccc(Cl)cc1)c1c(C)c(C(=O)N[C@@H](C)c2ccccc2)nn1-c1ccc(Cl)cc1Cl`
Resp: criterion met

Req: // inclusive: pIC50 at least 7? input: `CC(=Cc1ccc(Cl)cc1)c1c(C)c(C(=O)N[C@H](C)C2CCCCC2)nn1-c1ccc(Cl)cc1Cl`
Resp: criterion not met

Req: // inclusive: pIC50 at least 7? input: `CC(=Cc1ccc(Cl)cc1)c1c(C)c(C(=O)N[C@@H]2C(C)(C)[C@@H]3CC[C@]2(C)C3)nn1-c1ccc(Cl)cc1Cl`
Resp: criterion met

Req: // inclusive: pIC50 at least 7? input: `CC(=Cc1cccc(Cl)c1)c1c(C)c(C(=O)N[C@@H](C)C2CCCCC2)nn1-c1ccc(Cl)cc1Cl`
Resp: criterion not met

Req: // inclusive: pIC50 at least 7? input: `CC(=Cc1ccc(Cl)cc1)c1c(C)c(C(=O)N[C@H](C)c2ccccc2)nn1-c1ccc(Cl)cc1Cl`
Resp: criterion not met

====

# target.entity: human CB2 receptor (Homo sapiens, UniProt P34972)
# Construct: expressed in transfected cells; host or cells: SK-N-MC cells, stably transfected with pcDNA3 CB-2 (human); semi-purified membrane pellet
# Sequence (P34972 whole entry): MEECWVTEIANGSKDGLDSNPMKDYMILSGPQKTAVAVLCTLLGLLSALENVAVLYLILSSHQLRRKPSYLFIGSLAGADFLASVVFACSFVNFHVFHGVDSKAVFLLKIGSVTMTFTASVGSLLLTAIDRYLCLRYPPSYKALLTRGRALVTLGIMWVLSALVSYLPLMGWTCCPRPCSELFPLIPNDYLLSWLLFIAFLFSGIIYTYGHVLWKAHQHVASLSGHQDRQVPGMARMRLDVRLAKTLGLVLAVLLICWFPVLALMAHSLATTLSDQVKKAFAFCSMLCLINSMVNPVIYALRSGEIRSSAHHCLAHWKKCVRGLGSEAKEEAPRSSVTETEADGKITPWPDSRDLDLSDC
# test.summary: Binding assay, cannabinoid CB2 receptor, [3H]-CP-55,940 displacement
# condition.details: read-out: Cannabinoid CB2 Receptor Binding, percent inhibition
observable: inhibition at 1 µM (%)
Report only the number, with the unit % understood.

Req: State the recorded inhibition at 1 µM for this entry: CC(=Cc1ccc(Cl)cc1)c1c(C)c(C(=O)N[C@@H](C)C2CCCCC2)nn1-c1ccc(Cl)cc1Cl [Cpd 1]
Resp: 42

Req: State the recorded inhibition at 1 µM for this entry: CC(=Cc1ccc(Cl)cc1)c1c(C)c(C(=O)Nc2ccccc2)nn1-c1ccc(Cl)cc1Cl [Cpd 10]
Resp: 46

Req: State the recorded inhibition at 1 µM for this entry: CC(=Cc1ccc(Cl)cc1)c1c(C)c(C(=O)NCC2CCCCC2)nn1-c1ccc(Cl)cc1Cl [Cpd 9]
Resp: 49

Req: State the recorded inhibition at 1 µM for this entry: CC(=Cc1ccc(Cl)cc1)c1c(C)c(C(=O)N[C@@H](C)c2ccccc2)nn1-c1ccc(Cl)cc1Cl [Cpd 2]
Resp: 32

====

Would you kindly list IC50 for each of these compounds?
# target.entity: human CB1 receptor (Homo sapiens, UniProt P21554)
# Construct: expressed in transfected cells; host or cells: SK-N-MC cells, stably transfected with pcDNA3 CB-1 (human); semi-purified membrane pellet
# test.summary: Binding assay, cannabinoid CB1 receptor, [3H]-CP-55,940 displacement
Your answer should be a number followed by the unit of measure.

Req: Which measured IC50 belongs to `CC(=Cc1cccc(Cl)c1)c1c(C)c(C(=O)N[C@H](C)C2CCCCC2)nn1-c1ccc(Cl)cc1Cl` , tested on human CB1 receptor (Homo sapiens, UniProt P21554)?
Resp: 0.09 µM

Req: Which measured IC50 belongs to `CC[C@@H](C)NC(=O)c1nn(-c2ccc(Cl)cc2Cl)c(C(C)=Cc2ccc(Cl)cc2)c1C` , tested on human CB1 receptor (Homo sapiens, UniProt P21554)?
Resp: 0.07 µM

Req: Which measured IC50 belongs to `CC(=Cc1ccc(Cl)cc1)c1c(C)c(C(=O)NN2CCCCC2)nn1-c1ccc(Cl)cc1Cl` , tested on human CB1 receptor (Homo sapiens, UniProt P21554)?
Resp: 0.09 µM
